- assayDetails: Half-life of compound in acetate buffer (pH 4.5)
- Format: ADME
half-life values by entry
Express it in h; write the number only.

Consider the worked cases shown below.
INSERT INTO results (compound, unitofmeasurement, val) VALUES
  ('CC(=O)OCC1=C(C(=O)NC(CC(C)C)C(=O)O)N2C(=O)[C@@H](NC(=O)Cc3cccs3)[C@H]2SC1 (some centres undefined)', 'h', 41),
  ('CC1(C)S[C@@H]2[C@H](NC(=O)COc3ccccc3)C(=O)N2[C@H]1C(=O)O', 'h', 17),
  ('CC(=O)OCC1=C(C(=O)O)N2C(=O)[C@@H](NC(=O)Cc3cccs3)[C@H]2SC1', 'h', 29);

Okay, now this compound:
So what's the measured half-life for this one? "CC1(C)S[C@@H]2[C@H](NC(=O)COc3ccccc3)C(=O)N2[C@H]1C(=O)N[C@@H](Cc1ccc(O)cc1)C(=O)O"
7
